Data provenance: a melting point compilation (Tetko et al.)

// melting point lookup, one value per entry
RECORDED_ENDPOINT: melting point

> print(dat)
         structure.as.smiles  recorded.endpoint         result
1  O=C(O)c1ccc(COc2ccccc2)s1      melting point  134 to 136 °C
2   C#CCNC(=O)Nc1cccc(C#N)c1      melting point  167 to 169 °C
3            NC(=O)C=C1CCCC1      melting point  141 to 143 °C

###

// melting point lookup, one value per entry
RECORDED_ENDPOINT: melting point

> print(dat)
                                    compound         result
 1                      Clc1ccc2c(Cl)ncnc2c1  136 to 138 °C
 2                    NC1(c2cccc(F)c2)CCOCC1    48 to 50 °C
 3                      ClCCc1nnnn1-c1ccccc1    45 to 47 °C
 4         CS(=O)(=O)Nc1ccc(S(=O)(=O)Cl)cc1F  164 to 166 °C
 5                        CN(CC(N)=O)C1CCCC1    78 to 80 °C
 6                 O=[N+]([O-])c1ccc(Cl)nc1O  139 to 141 °C
 7                Nc1cccc(NC(=O)CCn2cccn2)c1  104 to 106 °C
 8                    COCCNC(=O)Nc1ccc(N)cc1  135 to 137 °C
 9                   NCc1cc2c(cc1OC(F)F)OCO2    39 to 41 °C
10                     CN(C)c1ccc(C(=O)O)cn1  225 to 227 °C
11               CC(C)c1noc(-c2ccc(Br)cc2)n1    29 to 31 °C
12               Nc1cc(=O)[nH]n1-c1ccc(F)cc1  202 to 204 °C
13                    O=C(O)c1cccc2[nH]ccc12  213 to 214 °C
14     COc1cccc(-c2cc(N)n(-c3ccc(C)cc3)n2)c1  109 to 111 °C
15            Cc1ccc(Oc2cccc(N(C)C)c2)c(N)c1    64 to 66 °C
16                           CN(C)S(N)(=O)=O    94 to 96 °C
17                  Nc1ccc(Oc2ccncc2)c(Cl)c1  129 to 131 °C
18  O=C(O)CCC1NC(=O)N(c2ccc(F)cc2F)C1=O (centres undefined)  183 to 185 °C
19      COc1ccc(S(N)(=O)=O)c([N+](=O)[O-])c1  143 to 145 °C
20                  Cc1cc(C)c(C#N)c(=S)[nH]1  255 to 257 °C
21                  Cc1c(C(=O)CBr)oc2ccccc12  110 to 112 °C
22                     COc1cccc(C(C=O)C=O)c1    62 to 64 °C
23      O=C1OCCc2cc3c(=O)[nH]c(=O)[nH]c3nc21  380 to 382 °C
24                           NC(=O)NCc1ccco1  120 to 122 °C
